- test-system: ERα (Homo sapiens, UniProt P03372)
- Sequence (P03372 1-595): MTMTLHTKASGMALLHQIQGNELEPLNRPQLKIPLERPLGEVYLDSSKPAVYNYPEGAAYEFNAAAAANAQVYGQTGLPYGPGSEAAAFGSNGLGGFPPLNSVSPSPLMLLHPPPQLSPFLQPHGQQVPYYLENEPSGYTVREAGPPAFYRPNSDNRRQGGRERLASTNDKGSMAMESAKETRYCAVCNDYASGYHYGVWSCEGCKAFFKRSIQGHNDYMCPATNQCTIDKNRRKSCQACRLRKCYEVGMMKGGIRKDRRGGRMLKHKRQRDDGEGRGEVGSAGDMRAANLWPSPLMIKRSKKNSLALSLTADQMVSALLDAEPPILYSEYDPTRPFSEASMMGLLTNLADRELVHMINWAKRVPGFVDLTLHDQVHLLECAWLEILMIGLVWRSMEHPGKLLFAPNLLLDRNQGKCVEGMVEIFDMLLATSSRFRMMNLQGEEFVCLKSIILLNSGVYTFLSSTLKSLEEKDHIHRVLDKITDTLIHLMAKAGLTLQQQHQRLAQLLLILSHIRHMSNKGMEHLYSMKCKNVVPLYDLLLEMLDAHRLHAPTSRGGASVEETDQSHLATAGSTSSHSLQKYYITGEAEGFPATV
- test-name: Degradation of ERα in T-47D cells (immunoblotting, 4 h)
- Format: cell-based
- Set-up: host or cells: T-47D
- condition-description: 10nM compound
Below is a list of entries, each paired with its recorded Degradation rate (%) of ERα in T-47D cells value.
readout-kind: Degradation rate (%) of ERα in T-47D cells

compound	test-system	result-number
O=C1CCC(N2Cc3c(ccc4c3OCC43CCN(C(=O)CN4CCC(Oc5ccc([C@@H]6c7ccc(O)cc7CC[C@@H]6c6ccccc6)cc5)CC4)CC3)C2=O)C(=O)N1 (stereo partly drawn)	ERα (Homo sapiens, UniProt P03372)	37
C[C@@H]1Cc2cc(O)ccc2[C@@H](c2c(F)cc(N3CC4(CCC(N5CCC6(CC5)COc5c6ccc6c5CN(C5CCC(=O)NC5=O)C6=O)CC4)C3)cc2F)N1CC(F)(F)F (stereo partly drawn)	ERα (Homo sapiens, UniProt P03372)	62
O=C1CCC(N2Cc3c(ccc4c3OCC43CCN([C@@H]4CCN(CC5CCN(c6ccc([C@@H]7c8ccc(O)cc8CC[C@@H]7c7ccccc7)cc6)CC5)C[C@@H]4F)CC3)C2=O)C(=O)N1 (stereo partly drawn)	ERα (Homo sapiens, UniProt P03372)	81
O=C1CCC(N2Cc3cc4c(cc3C2=O)OCC2(CCN(C3CCC5(CC3)CCN(c3ccc(C6c7ccc(O)cc7CCC6c6ccccc6)cc3)CC5)CC2)O4)C(=O)N1 (stereo not drawn)	ERα (Homo sapiens, UniProt P03372)	40
O=C1CCC(N2Cc3c(ccc4c3OCC43CCN(C4CCN(CC5CCN(c6ccc([C@@H]7c8ccc(O)cc8CC[C@@H]7c7ccccc7)cc6)CC5)C(=O)C4)CC3)C2=O)C(=O)N1 (stereo partly drawn)	ERα (Homo sapiens, UniProt P03372)	23
O=C1CCC(N2C(=O)c3cc4c(cc3C2=O)OC2(CC4)CN(C3CCC4(CC3)CN(c3ccc(C5c6ccc(O)cc6CCC5c5ccccc5)cc3)C4)C2)C(=O)N1 (stereo not drawn)	ERα (Homo sapiens, UniProt P03372)	19
O=C1CCC(N2Cc3cc4c(cc3C2=O)OCC42CCN(C3CCC4(CC3)CN(c3ccc([C@@H]5c6ccc(O)cc6CC[C@@H]5c5ccccc5)cc3)C4)CC2)C(=O)N1 (stereo partly drawn)	ERα (Homo sapiens, UniProt P03372)	66
O=C1CCC(N2Cc3c(ccc4c3OCC43CCN(C[C@H]4CC[C@@H](C#Cc5ccc([C@@H]6c7ccc(O)cc7CC[C@@H]6c6ccccc6)cc5)CC4)CC3)C2=O)C(=O)N1 (stereo partly drawn)	ERα (Homo sapiens, UniProt P03372)	35
C[C@H]1CN(c2ccc([C@@H]3c4ccc(O)cc4CC[C@@H]3c3ccccc3)cc2)CCN1C[C@H]1CC[C@H](C(=O)N2CCC3(CC2)COc2c3ccc3c2CN(C2CCC(=O)NC2=O)C3=O)CC1 (stereo partly drawn)	ERα (Homo sapiens, UniProt P03372)	68
O=C1CCC(N2C(=O)c3cc4c(cc3C2=O)C2(CCN(C3CC5(CCN(c6ccc(C7c8ccc(O)cc8CCC7c7ccccc7)cc6)CC5)C3)CC2)CO4)C(=O)N1 (stereo not drawn)	ERα (Homo sapiens, UniProt P03372)	18
O=C1CCC(N2Cc3c(ccc4c3OCC43CCN(C4CC5(CCC6(CCN(C7CCN(c8ccc([C@@H]9c%10ccc(O)cc%10CC[C@@H]9c9ccccc9)cc8)CC7)CC6)CC5)C4)CC3)C2=O)C(=O)N1 (stereo partly drawn)	ERα (Homo sapiens, UniProt P03372)	35
CN(C(=O)CN1CCC2(CC1)COc1c2ccc2c1C(=O)N(C1CCC(=O)NC1=O)C2=O)C1CCC2(CC1)CCN(c1ccc([C@@H]3c4ccc(O)cc4CC[C@@H]3c3ccccc3)cc1)CC2 (stereo partly drawn)	ERα (Homo sapiens, UniProt P03372)	71
CN(C(=O)CN1CCC2(CC1)COc1c2ccc2c1CN(C1CCC(=O)NC1=O)C2=O)C1CCC2(CC1)CN(c1ccc([C@@H]3c4ccc(O)cc4CC[C@@H]3c3ccccc3)cc1)C2 (stereo partly drawn)	ERα (Homo sapiens, UniProt P03372)	77
O=C1CCC(N2Cc3ccc4c(c3C2=O)OC2(CC4)CCN(C3CC4(CCN(c5ccc([C@@H]6c7ccc(O)cc7CC[C@@H]6c6ccccc6)cc5)CC4)C3)CC2)C(=O)N1 (stereo partly drawn)	ERα (Homo sapiens, UniProt P03372)	-28
O=C1CCC(N2Cc3c(ccc4c3OCC43CCN(CC(=O)N4CCC5(CC4)CCN(c4ccc([C@@H]6c7ccc(O)cc7CC[C@@H]6c6ccccc6)cc4)CC5)CC3)C2=O)C(=O)N1 (stereo partly drawn)	ERα (Homo sapiens, UniProt P03372)	87
C[C@@H]1Cc2c(ccc3[nH]ncc23)[C@@H](c2c(F)cc(N3CCC4(CCN(CC(=O)N5CCC6(CC5)COc5c6ccc6c5CN(C5CCC(=O)NC5=O)C6=O)C4)CC3)cc2F)N1CC(F)F (stereo partly drawn)	ERα (Homo sapiens, UniProt P03372)	68
O=C1CCC(N2Cc3cc4c(cc3C2=O)OC2(CC4)CCN(C3CCC4(CC3)CN(c3ccc(C5c6ccc(O)cc6CCC5c5ccccc5)cc3)C4)CC2)C(=O)N1 (stereo not drawn)	ERα (Homo sapiens, UniProt P03372)	53
CN(CC1CCN(c2ccc([C@@H]3c4ccc(O)cc4CC[C@@H]3c3ccccc3)cc2)CC1)[C@H]1CC[C@H](C(=O)N2CCC3(CC2)COc2c3ccc3c2CN(C2CCC(=O)NC2=O)C3=O)CC1 (stereo partly drawn)	ERα (Homo sapiens, UniProt P03372)	70
O=C1CCC(N2Cc3c(ccc4c3OCC43CCN(C(=O)C4CCN(C5CCN(c6ccc([C@@H]7c8ccc(O)cc8CC[C@@H]7c7ccccc7)cc6)CC5)CC4)CC3)C2=O)C(=O)N1 (stereo partly drawn) [H22]	ERα (Homo sapiens, UniProt P03372)	73
O=C1CCC(N2C(=O)c3cc4c(cc3C2=O)C2(CCN(CC3CCC5(CC3)CCN(c3ccc([C@@H]6c7ccc(O)cc7CC[C@@H]6c6ccccc6)cc3)CC5)CC2)CO4)C(=O)N1 (stereo partly drawn)	ERα (Homo sapiens, UniProt P03372)	-23
O=C1CCC(N2C(=O)c3cc4c(cc3C2=O)OC2(CC4)CCN(C3CC4(CCN(c5ccc(C6c7ccc(O)cc7CCC6c6ccccc6)cc5)CC4)C3)CC2)C(=O)N1 (stereo not drawn)	ERα (Homo sapiens, UniProt P03372)	-37
